# target-system: huFLT3-T227 stably expressed on Ramos cells (human) (UniProt P36888)
# assay-name: FACS on cells
readout-name: FACS geometric mean fold change over Jurkat parental

Worked examples, 2 binders total:
1) Polypeptide No. 227 (scFv, V domains shown) VH: QVQLVQSGAEVKKPGSSVKVSCKASGYTLNELFMHWVRQAPGQGLEWVGGIIPMSGTTFYAQTFQGRVTITADESTSTAYMELSSLRSEDTAVYYCAKGVRQYSYGRYYYGMDVWGQGTLVTVSS VL: DIQMTQSPSSLSASVGDRVTITCRASQSVSSYLNWYQQKPGKAPKLLIYGASNLQSGVPSRFSGSGSGTDFTLTISSLQPEDFATYYCQQSYTTPWTFGQGTRLEIKR : < 2 fold
2) Polypeptide No. 276 (scFv, V domains shown) VH: QVQLVQSGAEVKKPGSSVKVSCKASGYTFTRFNIHWVRQAPGQGLEWMGWLNPFTGNTGYARKFQGRVTITADESTSTAYMELSSLRSEDTAVYYCASSSSWYGWFDPWGQGTLVTVSS VL: EIVMTQSPATLSVSPGERATLSCRASQSVSSYLAWYQQKPGQAPRLLIYDTSTRATGIPARFSGSGSGTEFTLTISSLQSEDFAVYYCQQYHSSPWTFGQGTKVEIKR : < 2 fold

Lab note: next binder to report on.
I'd like to know its FACS geometric mean fold change over Jurkat parental. The binder in question is Polypeptide No. 230 (scFv, V domains shown) VH: QVQLVQSGAEVKKPGSSVKVSCKASGGTFSSNAINWVRQAPGQGLEWMGGIIPLFGTTNYAQKFQGRVTITADESTSTAYMELSSLRSEDTAVYYCARVLSGWYGTYYFDYWGQGTLVTVSS VL: EIVMTQSPATLSVSPGERATLSCRASQSVSADYIAWYQQKPGQAPRLLIYDVSTRASGIPARFSGSGSGTEFTLTISSLQSEDFAVYYCQHYGSSQVTFGQGTKVEIKR
< 2 fold
